Molecular target: T1, PSMA Fab (006 PSMA Fab)
T1 construct: also called Anti-PSMA Fab; anti-PSMA Fab
Assay: clonal phage ELISA on captured PSMA Fab, wells pre-incubated with PSMA antigen as competitor
observation.type: phage binding ELISA signal on anti-PSMA Fab in presence of PSMA

// worked examples, phage binding ELISA signal on anti-PSMA Fab in presence of PSMA included
- binder: "SMIYCIPSWMCEGM [Phage-3657 (Peptide-180 library clone)]"
  reported.measurement: 0.0844
- binder: "LQTLCIPPWMCMGF [Phage-3649 (Peptide-180 library clone)]"
  reported.measurement: 0.0685
- binder: "LALACVPPWMCQGL [Phage-3654 (Peptide-180 library clone)]"
  reported.measurement: 0.0897

Ask: Quick one: phage binding ELISA signal on anti-PSMA Fab in presence of PSMA for VQILCRPQWMCEGL [Phage-3653 (Peptide-180 library clone)] ?
Reply: 0.0669

Ask: Proceed to VERMCEPLWMCAGL [Phage-3655 (Peptide-180 library clone)]
Reply: 0.0832

Ask: Field entry: SVVMCVPEWMCQGF [Phage-3651 (Peptide-180 library clone)]
Reply: 0.0734

Ask: Lookup PSAVCVPTWMCSGF [Phage-3652 (Peptide-180 library clone)]
Reply: 0.0815

Ask: Then MVPVCIPLWMCSGF [Phage-3647 (Peptide-180 library clone)] ?
Reply: 0.0744

Ask: Could you do the same for ETSWCTPSWMCTGF [Phage-3656 (Peptide-180 library clone)] , please?
Reply: 0.0752

Ask: Entry to check: TAVMCIPYWMCGGM [Phage-3646 (Peptide-180 library clone)]
Reply: 0.104

Ask: Same for IDRHCTPSWMCYGF [Phage-3658 (Peptide-180 library clone)]
Reply: 0.0562

Ask: Then EQVLCRPAWMCLGF [Phage-3650 (Peptide-180 library clone)] ?
Reply: 0.0974

Ask: Next record, please: VDVRCMPLWMCSGF [Phage-3645 (Peptide-180 library clone)]
Reply: 0.0628

Ask: Likewise for PLVLCIPQWMCQAM [Phage-3648 (Peptide-180 library clone)] ?
Reply: 0.0663
